This section lists IC50 readings for myosin light chain phosphorylation enzyme (MLCK) (Gallus gallus, UniProt P11799).
Counter-ions that a name gives are not always drawn.

Solved cases below.
{"COMPOUND": "Cl.NCCCN(CCCc1ccccc1)S(=O)(=O)c1cccc2c(N)nccc12 [Example 8, hydrochloride]", "RESULT": "> 50 µM"}
{"COMPOUND": "Cl.c1cc(NC2CCNCC2)c2ccncc2c1 [Example 20, hydrochloride]", "RESULT": "> 100 µM"}
{"COMPOUND": "NCCN(CCS(=O)(=O)c1ccccc1)S(=O)(=O)c1cccc2cnccc12 [Example 7, hydrochloride]", "RESULT": "> 50 µM"}

Note to self: IC50 of NCCCN(CCCc1ccccc1)S(=O)(=O)c1cccc2cnccc12 [Example 1, hydrochloride] with myosin light chain phosphorylation enzyme (MLCK) (Gallus gallus, UniProt P11799) was > 50 µM

Note to self: IC50 of NCCCOc1cccc2c(N)nccc12 [Example 10, hydrochloride] with myosin light chain phosphorylation enzyme (MLCK) (Gallus gallus, UniProt P11799) was > 30 µM

Note to self: IC50 of Cl.NCCCN(CCc1cccs1)S(=O)(=O)c1cccc2cnccc12 [Example 2, hydrochloride] with myosin light chain phosphorylation enzyme (MLCK) (Gallus gallus, UniProt P11799) was > 50 µM

----------
Target: myosin light chain phosphorylation enzyme (MLCK) (Gallus gallus)
Construct: purified from chicken gizzard smooth muscle by a conventional method; from tissue; host or cells: chicken gizzard smooth muscle
Experiment: Action on myosin light chain phosphorylation enzyme (MLCK) activity
Format: biochemical, chicken
Settings: result in words
METRIC_NAME: inhibition of MLCK

{"SMILES_REPRESENTATION": "C=Cc1cncc2cccc(NC3CCNCC3)c12.Cl", "inhibition of MLCK": "did not inhibit MLCK"}
{"SMILES_REPRESENTATION": "Cl.c1cc(OC2CCNCC2)c2ccncc2c1", "inhibition of MLCK": "did not inhibit MLCK"}
{"SMILES_REPRESENTATION": "Cc1cncc2cccc(N[C@H]3CC[C@@H](N)CC3)c12.Cl", "inhibition of MLCK": "did not inhibit MLCK"}
{"SMILES_REPRESENTATION": "Cl.Nc1nccc2c(O[C@H]3CC[C@@H](N)CC3)cccc12", "inhibition of MLCK": "did not inhibit MLCK"}
{"SMILES_REPRESENTATION": "Cc1cncc2cccc(NC3CCNCC3)c12.Cl", "inhibition of MLCK": "did not inhibit MLCK"}

# next compound below
The recorded inhibition of MLCK for entry `Cl.OCCN1CCC(Nc2cccc3cnccc23)CC1` equals did not inhibit MLCK

----------
Test system: neutrophils
Test: Neutrophil migration inhibitory action (Test Example 5)
Assay type: cell-based
Conditions: Homo sapiens, 0.5 h, FMLP 1 μM, Boyden Chamber, 37° C., 30 minutes, read-out: Neutrophil migration inhibition IC50
METRIC_NAME: IC50

The recorded IC50 for entry CC1CNCCN1S(=O)(=O)c1cccc2cnccc12 (stereo not shown) [Example H-7] equals > 40 µM

----------
System: intraocular pressure
Experiment: Intraocular pressure reducing action (Test Example 4)
Assay type: in vivo, Japanese white rabbit
Conditions: Oryctolagus cuniculus, topical; 1% aqueous solution, 50 μl dropped to the left eye, after 2 hours; read-out: Intraocular pressure reducing action (reduction ratio) (%)
Structures can show the parent of a compound that is named as a salt.
Outcome: Met for inhibition in vivo at 1 %, 50 µL of at least 20%; Not met for anything lower.

{"MOLECULE": "NCCN(CCS(=O)(=O)c1ccccc1)S(=O)(=O)c1cccc2cnccc12 [Example 7, hydrochloride]", "GROUP_LABEL": "Met"}
{"MOLECULE": "Cc1cncc2cccc(NC3CCNCC3)c12.Cl [Example 106, hydrochloride]", "GROUP_LABEL": "Met"}
{"MOLECULE": "Cl.Clc1cncc2cccc(NC3CCNCC3)c12 [Example 118, hydrochloride]", "GROUP_LABEL": "Met"}

Hi, just wondering whether CSc1cncc2cccc(NC3CCNCC3)c12.Cl [Example 105, hydrochloride] shows inhibition in vivo at 1 %, 50 µL of 20% or higher.
Not met

Hi, just wondering whether Cl.Fc1cncc2cccc(NC3CCNCC3)c12 [Example 104, hydrochloride] shows inhibition in vivo at 1 %, 50 µL of 20% or higher.
Not met

Hi, just wondering whether Cl.NCCN(CCS(=O)(=O)c1ccccc1)S(=O)(=O)c1cccc2c(O)nccc12 [Example 12, hydrochloride] shows inhibition in vivo at 1 %, 50 µL of 20% or higher.
Not met

Hi, just wondering whether Cl.c1cc(NC2CCNCC2)c2ccncc2c1 [Example 20, hydrochloride] shows inhibition in vivo at 1 %, 50 µL of 20% or higher.
Met

----------
Molecular target: myosin light chain phosphorylation enzyme (MLCK) (Gallus gallus, UniProt P11799)
Construct: purified from chicken gizzard smooth muscle by a conventional method; from tissue; host or cells: chicken gizzard smooth muscle
Test: Action on myosin light chain phosphorylation enzyme (MLCK) activity
Type: biochemical, chicken
Conditions: result in words
METRIC_NAME: inhibition of MLCK

{"SMILES_REPRESENTATION": "COC(=O)c1ccc(CCCN(CCCN)S(=O)(=O)c2cccc3cnccc23)cc1.Cl", "METRIC_NAME": "inhibition of MLCK", "RESULT": "did not inhibit MLCK"}
{"SMILES_REPRESENTATION": "Cl.NCCCN(CCCc1cccc(C(=O)O)c1)S(=O)(=O)c1cccc2cnccc12", "METRIC_NAME": "inhibition of MLCK", "RESULT": "did not inhibit MLCK"}
{"SMILES_REPRESENTATION": "Cl.Fc1cncc2cccc(NC3CCNCC3)c12", "METRIC_NAME": "inhibition of MLCK", "RESULT": "did not inhibit MLCK"}

----------
Test system: intraocular pressure
Test: Intraocular pressure reducing action (Test Example 4)
Type: in vivo, Japanese white rabbit
Details: Oryctolagus cuniculus, topical; 1% aqueous solution, 50 μl dropped to the left eye, after 2 hours; read-out: Intraocular pressure reducing action (reduction ratio) (%)
Where a name gives a salt, the structure may show the parent alone.
inhibition in vivo at 1 %, 50 µL values, listed per item
A number alone suffices; assume %.

Solved cases below.
{"MOLECULE": "N[C@H]1CC[C@H](Nc2cccc3cnccc23)CC1 [Example 24, hydrochloride]", "ASSAYED_SYSTEM": "intraocular pressure", "inhibition in vivo at 1 %, 50 µL [%]": 35.7}
{"MOLECULE": "Cl.c1cc(OC2CCNCC2)c2ccncc2c1 [Example 27, hydrochloride]", "ASSAYED_SYSTEM": "intraocular pressure", "inhibition in vivo at 1 %, 50 µL [%]": 12.5}
{"MOLECULE": "C=Cc1cncc2cccc(NC3CCNCC3)c12.Cl [Example 112, hydrochloride]", "ASSAYED_SYSTEM": "intraocular pressure", "inhibition in vivo at 1 %, 50 µL [%]": 25}

The recorded inhibition in vivo at 1 %, 50 µL for entry Cc1cncc2cccc(N[C@H]3CC[C@H](N)CC3)c12.Cl [Example 121, hydrochloride] equals 31.3
